Test: Solubility in 50 mM KH2PO4 containing 24 mM NaOH
Format: physicochemical
Recorded solubility by entry

LINE NOTATION | READOUT QUALIFIER | solubility / µg/mL
c1ccc(CN2CCC(Nc3ccc4[nH]ncc4c3)CC2)cc1 | = | 495
O=C(NCc1c(F)cccc1F)Nc1ccc2[nH]ncc2c1 | < | 1

###

Biological target: Rho-associated protein kinase (Homo sapiens, UniProt O75116+Q13464)
Response field label: string, one of 1.0 (IC50 strictly below 200 nM) or 0.0.

COMPOUND | EXPERIMENTAL TARGET | CATEGORY LABEL
c1ccc(CN[C@H]2CC[C@H](Nc3ccc4[nH]ncc4c3)CC2)cc1 | Rho-associated protein kinase (Homo sapiens, UniProt O75116+Q13464) | 0.0
c1ccc(CN[C@H]2CC[C@@H](Nc3ccc4[nH]ncc4c3)CC2)cc1 | Rho-associated protein kinase (Homo sapiens, UniProt O75116+Q13464) | 0.0
Cc1ccc(CN2CCCC(Nc3ccc4[nH]ncc4c3)C2)cc1 (stereo unspecified) | Rho-associated protein kinase (Homo sapiens, UniProt O75116+Q13464) | 1.0
Nc1cccc(CN2CCCC(Nc3ccc4[nH]ncc4c3)C2)c1 (stereo unspecified) | Rho-associated protein kinase (Homo sapiens, UniProt O75116+Q13464) | 1.0
c1ccc(CN2CCCC(Nc3ccc4[nH]ncc4c3)C2)cc1 (stereo unspecified) | Rho-associated protein kinase (Homo sapiens, UniProt O75116+Q13464) | 1.0
O=C(NCc1ccc(Cl)cc1Cl)Nc1ccc2[nH]ncc2c1 | Rho-associated protein kinase (Homo sapiens, UniProt O75116+Q13464) | 0.0
Fc1ccc(CN2CCC(CNc3ccc4[nH]ncc4c3)CC2)cc1 | Rho-associated protein kinase (Homo sapiens, UniProt O75116+Q13464) | 0.0
Clc1ccccc1CN1CCC(Nc2ccc3[nH]ncc3c2)C1 (stereo unspecified) | Rho-associated protein kinase (Homo sapiens, UniProt O75116+Q13464) | 1.0
c1cncc(CN2CCCC(Nc3ccc4[nH]ncc4c3)C2)c1 (stereo unspecified) | Rho-associated protein kinase (Homo sapiens, UniProt O75116+Q13464) | 1.0
CN(CCNc1ccc2[nH]ncc2c1)Cc1ccccc1 | Rho-associated protein kinase (Homo sapiens, UniProt O75116+Q13464) | 0.0
COc1ccc(CN2CCCC(Nc3ccc4[nH]ncc4c3)C2)cc1 (stereo unspecified) | Rho-associated protein kinase (Homo sapiens, UniProt O75116+Q13464) | 1.0

###

Lab note: IC50 readings collected with Rho-associated protein kinase (Homo sapiens, UniProt O75116+Q13464) for the following compounds.

COMPOUND | READOUT QUALIFIER | IC50, nM
c1cc(CN2CCCC(Nc3ccc4[nH]ncc4c3)C2)c[nH]1 (configuration not stated) | > | 1000
CC(C)CCN1CCCC(Nc2ccc3[nH]ncc3c2)C1 (configuration not stated) | = | 340
Nc1ccccc1CN1CCCC(Nc2ccc3[nH]ncc3c2)C1 (configuration not stated) | = | 85
Cn1ncc2cc(NC3CCCN(Cc4ccccc4)C3)ccc21 (configuration not stated) | > | 10000
Nc1ccc(CN2CCCC(Nc3ccc4[nH]ncc4c3)C2)cc1 (configuration not stated) | = | 10
O=C(NCc1c(F)cccc1F)Nc1ccc2[nH]ncc2c1 | = | 85
c1ccc(CN2CCC(Nc3ccc4[nH]ncc4c3)C2)cc1 (configuration not stated) | = | 32

###

Values of IC50 reported for Rho-associated protein kinase (Homo sapiens, UniProt O75116+Q13464) appear below.

MOLECULE | READOUT QUALIFIER | IC50 (nM)
Fc1ccc(CN2CCCC(Nc3ccc4[nH]ncc4c3)C2)cc1F (centres undefined) | = | 10
COc1cc(CN2CCCC(Nc3ccc4[nH]ncc4c3)C2)cc(OC)c1 (centres undefined) | = | 80
c1c[nH]c(CN2CCCC(Nc3ccc4[nH]ncc4c3)C2)c1 (centres undefined) | = | 11
c1ccc(CN2CCC(Oc3ccc4[nH]ncc4c3)CC2)cc1 | = | 100
O=[N+]([O-])c1ccc(CN2CCCC(Nc3ccc4[nH]ncc4c3)C2)cc1 (centres undefined) | = | 87
CCCN1CCCC(Nc2ccc3[nH]ncc3c2)C1 (centres undefined) | = | 780
Clc1ccccc1CN1CCCC(Nc2ccc3[nH]ncc3c2)C1 (centres undefined) | = | 13
Clc1ccc(CN2CCCC(Nc3ccc4[nH]ncc4c3)C2)cc1 (centres undefined) | = | 11
Clc1ccccc1CN1CCC(Nc2ccc3[nH]ncc3c2)CC1 | = | 440
Cc1n[nH]c2ccc(NC3CCCN(Cc4ccccc4)C3)cc12 (centres undefined) | = | 150
c1coc(CN2CCCC(Nc3ccc4[nH]ncc4c3)C2)c1 (centres undefined) | = | 65
c1ccc(CN2CCCC(Nc3ccc4[nH]ncc4c3)C2)nc1 (centres undefined) | = | 240
O=C(Nc1ccc2[nH]ncc2c1)NC1CCN(Cc2ccccc2)CC1 | > | 10000
O=C(NCc1c(Cl)cccc1Cl)Nc1ccc2[nH]ncc2c1 | = | 20
O=C(NC1CCN(Cc2ccccc2)CC1)c1ccc2[nH]ncc2c1 | = | 540
Clc1cccc(CN2CCC(Nc3ccc4[nH]ncc4c3)CC2)c1 | = | 290
O=C(Nc1ccc2[nH]ncc2c1)C1CCN(Cc2ccccc2)CC1 | = | 136
Clc1ccc(CN2CCC(Nc3ccc4[nH]ncc4c3)CC2)cc1 | = | 290
O=C(NCc1ccccc1)Nc1ccc2[nH]ncc2c1 | = | 260
O=C(Nc1ccc2[nH]ncc2c1)C1CCCN(Cc2ccccc2)C1 (centres undefined) | = | 18
Fc1ccc(CN2CCCC(Nc3ccc4[nH]ncc4c3)C2)cc1 (centres undefined) | = | 25
Clc1cccc(CN2CCCC(Nc3ccc4[nH]ncc4c3)C2)c1 (centres undefined) | = | 19
c1cc(CN2CCCC(Nc3ccc4[nH]ncc4c3)C2)co1 (centres undefined) | = | 180
c1ccc(CN2CCCC(Oc3ccc4[nH]ncc4c3)C2)cc1 (centres undefined) | = | 10

###

Assay: Solubility in 0.086N HCl containing 34 mM NaCl
Type: physicochemical

LINE NOTATION | solubility / µg/mL
O=C(NCc1c(F)cccc1F)Nc1ccc2[nH]ncc2c1 | 5
c1ccc(CN2CCC(Nc3ccc4[nH]ncc4c3)CC2)cc1 | 881
